Target: human FGFR2b extracellular domain (human, UniProt P21802)
Sequence (P21802 22-377): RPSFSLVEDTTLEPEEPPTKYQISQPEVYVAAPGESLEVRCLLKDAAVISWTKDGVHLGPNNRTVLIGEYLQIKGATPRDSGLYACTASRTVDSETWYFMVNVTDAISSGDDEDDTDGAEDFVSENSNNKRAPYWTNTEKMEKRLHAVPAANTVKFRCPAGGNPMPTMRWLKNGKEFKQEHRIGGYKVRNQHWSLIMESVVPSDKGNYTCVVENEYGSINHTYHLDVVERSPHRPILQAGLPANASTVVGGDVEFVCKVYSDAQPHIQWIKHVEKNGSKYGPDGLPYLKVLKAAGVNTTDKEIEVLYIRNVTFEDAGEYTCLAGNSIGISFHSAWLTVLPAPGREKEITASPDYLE
Test: ELISA
Listed here are binders together with their documented EC50.
Form entry: value (µg/mL) — number only.

Item under review: 3F5 (antibody, V domains shown) VH: EIQLQQSGAELVKPGASVKMSCKASGYTFRYYNMHWVKRTPGQGLEWIGLIYPDNGDTSYNQKFKGKATLTADTSSSTAYMQLSSLTSEDSAVYYCARGGLDYWGQGTTLTVSS VL: DIVLTQSPASLSASVGETVTITCGASENIYGALNWYQRKQGKSPQLLIYGATNLADGMSSRFSGSGSGRQYSLKISSLHPDDVATYYCQNVLSTPYTFGGGTKLEIK . Reported EC50?
0.0159

Item under review: 1D7 (antibody, V domains shown) VH: QIQLQQSGAELVKPGASVKMSCKASGYTFRYYNMHWVKRTPGQGLEWIGLIYPDNGDTSYNQKFKGKATLTADTSSSTAYMQLSSLTSEDSAVYYCARGGLDYWGQGTSLTVSS VL: DIQMTQSPSSMSASLGDRITITCQATQDIVKNLNWYQQKPGKPPSFLIYYATELAEGVPSRFSGSGSGSDYSLTISNLESEDFADYYCLQFYEFPLTFGAGTKLELK . Reported EC50?
0.0154

Item under review: 3E7 (antibody, V domains shown) VH: QVQLQQSGAELVKPGASVKMSCKASGYTFTIYNIHWVRQTPGQGLEWIGLIYPDNGDTSYNQKFKAKATLTADKSSSTAYMQLSSLTSEDSAVYYCARGGFDYWGQGTTLTVSS VL: NIVMTQSQKFMSTSVGDRVSVTCKASQNVGTNVAWYQQKPGQSPKALIYSASYRYSGVPDRFTGSGSGTDFTLTISGVQAEDLADYYCQQHYNTPYTFGGGTKLEIK . Reported EC50?
0.0154

Item under review: 3A3 (antibody, V domains shown) VH: QVQLQQSGAELVKPGASVKMSCKASGYTFTTYNIHWVRQTPGQGLEWIGLIYPDNGDTSYNQKFKAKATLTADKSSSTAYMHLSSLTSEDSAVYYCARGGFDYWGQGTTLTVSS VL: DIVMTQSHKFMSTSVGDRVSITCKASQDVNTDVSWYQQKPGQSPKLLIYSASYRYTGVPTRFTGSGSGTDFTFTISGVQAEDLADYYCQQHYNTPYTFGGGTRLEIK . Reported EC50?
0.0216

Now consider a different binder.
Item under review: 1A3 (antibody, V domains shown) VH: QVQLQQPGAELVKPGASVKMSCKASGYTFASYNLHWVKQTPGQGLEWIGLIYPENGDTSYNQKFKGKATLTADKSSSTAYIQLSSLTSEDSAVYFCARGGFDYWGQGTTLTVSQ VL: DIQMTQSPASLSASVGETVTITCGASENIYGALNWYQRKQGKSPQLLIYGATNLADGMSSRFSGSGSGRQYSLKISSLHPDDVATYYCQNVLSTPYTFGGGTKLEIK . Reported EC50?
0.00818
